Listed compounds paired with reported log10 of IC50
Tested on: L. infantum (MHOM/MA(BE)/67) amastigotes in primary peritoneal mouse macrophages
Assay: L. infantum intramacrophage amastigote assay (microscopic burden)
Format: cell-based, Leishmania infantum
Settings: 5 days, mouse macrophages as host
Protocol: L. infantum (MHOM/MA(BE)/67 strain) amastigote were incubated for 5 days in 96-well plates with five concentrations of compound (64, 16, 4, 1, and 0.25 μM). Primary peritoneal mouse macrophages were used as host cells. Parasite burdens (i.e., the number of amastigotes per macrophage) were microscopically assessed. The results were expressed as a percentage reduction in parasite burden compared to untreated control wells, and an IC50 was calculated.
Base-10 log of IC50, unit µM.

CC(=O)Nc1ccc(/C=C/C(=O)/C=C/c2ccc(NC(C)=O)cc2)cc1    0.91
CN(C)c1ccc(/C=C/C(=O)/C=C/c2ccc(C(F)(F)F)cc2)cc1    0.90
CN(C)c1ccc(/C=C/C(=O)/C=C/c2ccc(F)cn2)cc1    1.51

Record O=C1CC(c2c(Cl)cccc2Cl)SC(c2c(Cl)cccc2Cl)C1 (racemic) , field log10 of IC50: 0.30

Record Cc1ccc(/C=C/C(=O)/C=C/c2ccccc2)cc1 , field log10 of IC50: 1.51

Record O=C(/C=C/c1ccccc1)/C=C/c1ccncc1 , field log10 of IC50: -0.30

Record COc1cc([C@@H]2CC(=O)C[C@H](c3cc(OC)c(C)cc3OC)S2)c(OC)cc1C , field log10 of IC50: 0.71

Record CN(C)c1ccc([C@H]2CC(=O)C[C@H](c3ccc(N(C)C)cc3)S2)cc1 (racemic) , field log10 of IC50: 1.63

Record COc1ccc(C2CC(=O)CC(c3ccc(OC)cc3)S2(=O)=O)cc1 (centres unmarked) [4′d] , field log10 of IC50: 1.31

Record O=C(/C=C/c1ccccc1)/C=C/c1ncccn1 , field log10 of IC50: -0.40

Record COc1ccc(C2CC(=O)CC(c3ccc(OC)c(OC)c3)S2)cc1OC (racemic) , field log10 of IC50: 1.51

Record COc1cc(Br)c(OC)c([C@@H]2CC(=O)C[C@H](c3cc(OC)cc(Br)c3OC)S2)c1 , field log10 of IC50: 0.93

Record O=C1C[C@@H](c2ccc(F)cc2)S[C@@H](c2ccc(F)cc2)C1 , field log10 of IC50: 0.32

Record CN(C)c1ccc(/C=C/C(=O)/C=C/c2nccs2)cc1 , field log10 of IC50: 1.58

---

System: Trypanosoma brucei brucei trypomastigotes, suramin-sensitive strain (Squib 427)
Test: T. b. brucei growth/viability assay (resazurin)
Assay type: cell-based
Details: 3 days
MEASUREMENT_LABEL: pIC50
To interpret pIC50, take it as minus log10 of a concentration measured in moles per litre.

Reference set, count: 4
O=C1CC(c2ccc(Cl)cc2)SC(c2ccc(Cl)cc2)C1 (racemic)    4.56
COc1ccc(C2CC(=O)CC(c3ccc(OC)cc3)S2(=O)=O)cc1 (stereo not drawn) [4′d]    5.68
O=C1C[C@@H](c2ccc(F)cc2)S[C@@H](c2ccc(F)cc2)C1    5.68
Cc1ccc(C(=O)Nc2ccc(S(=O)(=O)O)c3cc(S(=O)(=O)O)cc(S(=O)(=O)O)c23)cc1NC(=O)c1cccc(NC(=O)Nc2cccc(C(=O)Nc3cc(C(=O)Nc4ccc(S(=O)(=O)O)c5cc(S(=O)(=O)O)cc(S(=O)(=O)O)c45)ccc3C)c2)c1 [Suramin, suramin, reference compound]    7.52

Consider the record given below.
Record O=C1C[C@@H](c2ccccc2Cl)S[C@@H](c2ccccc2Cl)C1 , field pIC50: 4.42
